- Tested on: Corn Earworm (Helicoverpa zea)
- Test: Insecticidal diet-surface test for corn earworm
- Assay type: in vivo
- Experimental Conditions: second-instar corn earworm, 50 ug/cm2 on diet surface, 5 days after treatment, dead insects of 8
- Procedure: The compounds identified in Table 1 were prepared using the procedures illustrated in the foregoing examples, and the compounds were tested against beet armyworm and corn earworm as follows: […] To prepare test solution, the test compound was formulated at 2000 ppm solution as 4 mg/2 mL of 9 acetone:1 tap water. […] The number of dead insects of 8 per species per treatment was then determined and the results are given in Table 1 as percent control at a dose of […]. […]
HELIZE 50 (ug/cm2), percent control overview

Compound: Fc1ccc(Nc2cc(Cl)nc(N/N=C/c3cccc(Cl)c3)n2)cc1C(F)(F)F
Target: Corn Earworm (Helicoverpa zea)
HELIZE 50 (ug/cm2), percent control: 100%
//
Compound: CC(C)(C)C(=O)OC(c1cccc(Nc2cc(Cl)nc(N/N=C/c3ccc(OC(F)(F)F)cc3)n2)c1)C(F)(F)F (stereo not shown)
Target: Corn Earworm (Helicoverpa zea)
HELIZE 50 (ug/cm2), percent control: 0%
//
Compound: Fc1ccc(Nc2cc(N/N=C/c3ccc(OC(F)(F)C(F)F)cc3)nc(NCc3ccc(Cl)nc3)n2)cc1C(F)(F)F
Target: Corn Earworm (Helicoverpa zea)
HELIZE 50 (ug/cm2), percent control: 100%
//
Compound: COCCNc1cc(Nc2ccc(F)c(C(F)(F)F)c2)nc(N/N=C/c2ccc(OC(F)(F)F)cc2)n1
Target: Corn Earworm (Helicoverpa zea)
HELIZE 50 (ug/cm2), percent control: 100%
//
Compound: Clc1cc(Nc2cccc(Br)c2)nc(N/N=C/c2ccccc2Cl)n1
Target: Corn Earworm (Helicoverpa zea)
HELIZE 50 (ug/cm2), percent control: 13%
//
Compound: FC(F)C(F)(F)Oc1cccc(Nc2cc(Cl)nc(N/N=C/c3ccc(C(F)(F)F)nc3)n2)c1
Target: Corn Earworm (Helicoverpa zea)
HELIZE 50 (ug/cm2), percent control: 0%
//
Compound: Fc1ccc(Nc2nc(Cl)nc(N/N=C/c3ccc(OC(F)(F)F)nc3)c2Cl)cc1C(F)(F)F
Target: Corn Earworm (Helicoverpa zea)
HELIZE 50 (ug/cm2), percent control: 100%

----------
LAPHEG 50 (ug/cm2), percent control overview
- System: Beet Armyworm (Spodoptera exigua)
- Test: Insecticidal diet-surface test for beet armyworm
- Format: in vivo
- Experimental Conditions: second-instar beet armyworm, 50 ug/cm2 on diet surface, 5 days after treatment, dead insects of 8

Compound: FC(F)C(F)(F)Oc1cccc(Nc2cc(Cl)nc(N/N=C/c3ccc(OC(F)(F)F)cc3)n2)c1
LAPHEG 50 (ug/cm2), percent control (%): 100
//
Compound: FC(F)C(F)(F)Oc1ccc(Nc2cc(Cl)nc(N/N=C/c3ccc4c(c3)OC(F)(F)O4)n2)cc1
LAPHEG 50 (ug/cm2), percent control (%): 100
//
Compound: Fc1ccc(Nc2ncc(F)c(NN=Cc3ccc(OC(F)(F)F)cc3)n2)cc1C(F)(F)F
LAPHEG 50 (ug/cm2), percent control (%): 100
//
Compound: Fc1ccc(/C=N/Nc2nc(Cl)cc(Nc3ccc(OC(F)(F)C(F)F)cc3)n2)cc1C(F)(F)F
LAPHEG 50 (ug/cm2), percent control (%): 100
//
Compound: Fc1cnc(N/N=C/c2cccc(OC(F)(F)F)c2)nc1Nc1ccc(OC(F)(F)F)cc1
LAPHEG 50 (ug/cm2), percent control (%): 0
//
Compound: Fc1ccc(Nc2ccnc(N/N=C/c3ccc(OC(F)(F)F)cc3)n2)cc1C(F)(F)F
LAPHEG 50 (ug/cm2), percent control (%): 100
//
Compound: CN(/N=C/c1ccc(OC(F)(F)F)cc1)c1nc(Nc2ccc(OC(F)(F)F)cc2)cc(C(F)(F)F)n1
LAPHEG 50 (ug/cm2), percent control (%): 88
//
Compound: FC(F)(F)c1cccc(Nc2cc(C(F)(F)F)nc(N/N=C/c3cccc(Br)c3)n2)c1
LAPHEG 50 (ug/cm2), percent control (%): 75
//
Compound: Fc1ccc(Nc2cc(N/N=C/c3ccc(C(F)(F)F)nc3)ncn2)cc1C(F)(F)F
LAPHEG 50 (ug/cm2), percent control (%): 100
//
Compound: CCOc1ccc(/C=N/Nc2nc(Cl)cc(Nc3ccc(F)c(C(F)(F)F)c3)n2)cn1
LAPHEG 50 (ug/cm2), percent control (%): 100
//
Compound: Fc1cc(Nc2ccc(F)c(C(F)(F)F)c2)nc(NN=Cc2ccc(OC(F)(F)F)cc2)n1
LAPHEG 50 (ug/cm2), percent control (%): 100
//
Compound: Fc1ccc(Nc2cc(Cl)nc(N/N=C/c3ccc(OC(F)(F)F)cc3)n2)cc1C(F)(F)F
LAPHEG 50 (ug/cm2), percent control (%): 100
//
Compound: Fc1ccc(Nc2nc(Cl)cc(N/N=C/c3ccc(OC(F)(F)C(F)F)cc3)n2)cc1C(F)(F)F
LAPHEG 50 (ug/cm2), percent control (%): 38
//
Compound: FC(F)(F)Oc1ccc(Nc2nccc(N/N=C/c3ccc(C(F)(F)F)cc3)n2)cc1
LAPHEG 50 (ug/cm2), percent control (%): 100
//
Compound: FC(F)(F)Oc1ccc(/C=N/Nc2nc(Cl)cc(Nc3cccc(Br)c3)n2)cc1
LAPHEG 50 (ug/cm2), percent control (%): 100
//
Compound: Fc1ccc(Nc2cc(Cl)nc(N/N=C/c3cccc(Cl)c3)n2)cc1C(F)(F)F
LAPHEG 50 (ug/cm2), percent control (%): 100
//
Compound: Clc1ccc(Nc2cc(Cl)nc(N/N=C/c3cccc(Cl)c3)n2)cc1
LAPHEG 50 (ug/cm2), percent control (%): 50
//
Compound: OC(c1cccc(Nc2cc(Cl)nc(N/N=C/c3ccc(OC(F)(F)C(F)F)cc3)n2)c1)C(F)(F)F (stereo not shown)
LAPHEG 50 (ug/cm2), percent control (%): 63
//
Compound: Fc1ccc(Nc2cc(C(F)(F)F)nc(N/N=C/c3cccc(Br)c3)n2)cc1C(F)(F)F
LAPHEG 50 (ug/cm2), percent control (%): 100

----------
- System: Corn Earworm (Helicoverpa zea)
- Test: Insecticidal diet-surface test for corn earworm
- Assay type: in vivo
- Experimental Conditions: second-instar corn earworm, 50 ug/cm2 on diet surface, 5 days after treatment, dead insects of 8
Think of 90% as a floor: if HELIZE 50 (ug/cm2), percent control stands on it or above, it is Condition met; beneath it, Condition not met.

Structure Smiles String: Clc1cccc(Nc2cc(Cl)nc(N/N=C/c3ccc(N4CCCC4)cc3)n2)c1
Target: Corn Earworm (Helicoverpa zea)
Group Label: Condition not met

Structure Smiles String: OC(c1ccc(Nc2cc(F)nc(NN=Cc3ccc(OC(F)(F)C(F)F)cc3)n2)cc1)(C(F)(F)F)C(F)(F)F
Target: Corn Earworm (Helicoverpa zea)
Group Label: Condition met

Structure Smiles String: Fc1ccc(Nc2nc(Cl)cc(N/N=C/c3ccc(OC(F)(F)C(F)F)cc3)n2)cc1C(F)(F)F
Target: Corn Earworm (Helicoverpa zea)
Group Label: Condition not met

Structure Smiles String: CCOc1ccc(/C=N/Nc2nc(Cl)cc(Nc3ccc(F)c(C(F)(F)F)c3)n2)cn1
Target: Corn Earworm (Helicoverpa zea)
Group Label: Condition met

Structure Smiles String: Fc1ccc(Nc2nc(Cl)cc(N/N=C/c3ccc(OC(F)(F)F)cc3)n2)cc1C(F)(F)F
Target: Corn Earworm (Helicoverpa zea)
Group Label: Condition met

Structure Smiles String: Fc1cnc(N/N=C/c2ccc(OC(F)(F)F)cc2)nc1Nc1ccc(OC(F)(F)F)cc1
Target: Corn Earworm (Helicoverpa zea)
Group Label: Condition met

Structure Smiles String: Fc1ccc(Nc2cc(Cl)nc(N/N=C/c3ccc(Br)nc3)n2)cc1C(F)(F)F
Target: Corn Earworm (Helicoverpa zea)
Group Label: Condition not met

Structure Smiles String: Clc1ccc(Nc2cc(Cl)nc(N/N=C/c3ccc(N4CCCCC4)cc3)n2)cc1
Target: Corn Earworm (Helicoverpa zea)
Group Label: Condition met

Structure Smiles String: FC(F)C(F)(F)Oc1ccc(Nc2cc(Cl)nc(N/N=C/c3ccc(OC(F)(F)F)cc3)n2)cc1
Target: Corn Earworm (Helicoverpa zea)
Group Label: Condition met

Structure Smiles String: Fc1ccc(Nc2nc(N/N=C/c3ccc(OC(F)(F)F)cc3)nc(Cl)c2Cl)cc1C(F)(F)F
Target: Corn Earworm (Helicoverpa zea)
Group Label: Condition not met

----------
- Test system: Corn Earworm (Helicoverpa zea)
- Test: Insecticidal diet-surface test for corn earworm
- Type: in vivo
- Experimental Conditions: second-instar corn earworm, 50 ug/cm2 on diet surface, 5 days after treatment, dead insects of 8
HELIZE 50 (ug/cm2), percent control overview
Endpoint: HELIZE 50 (ug/cm2), percent control (%)

Compound: Fc1ccc(/C=N/Nc2nc(Cl)cc(Nc3cccc(OC(F)(F)C(F)F)c3)n2)cc1C(F)(F)F [Compound 48]
Unit Tag: %
Observed: 88

Compound: Clc1ccc(/C=N/Nc2nc(Cl)cc(Nc3cccc(Cl)c3)n2)cc1 [Compound 32]
Unit Tag: %
Observed: 88

Compound: FC(F)(F)c1cccc(Nc2cc(C(F)(F)F)nc(N/N=C/c3cccc(Br)c3)n2)c1 [Compound 55]
Unit Tag: %
Observed: 88
